# Read-out: Cytochrome P450 2B6 (Homo sapiens) (UniProt P20813)
# protocol-description: CLD_CYP2B6_6hr: CellzDirect (CLD) Gene Expression Assay for xenobiotic metabolism (CYP2B6) at 6 hours (AID 2283677);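 also: actives raise CYP2B6 transcript above DMSO baseline so AC50 marks an inducer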
Inconclusive results are not listed. The source made the active and inactive calls. The calls were made as follows: active = hit-call score of the fitted dose curve at least 0.9, where 1 is the maximum; inconclusive = response in the unintended direction; inactive = score below 0.9.
The categories you may choose from are active, inactive

// query Hello, I am checking results. What call was entered for CCCCOCCOCCOCc1cc2c(cc1CCC)OCO2 ?
// result active

// query What outcome does the record of this test show for CCOC(=O)COc1cc(-n2ncc(C(F)(F)F)c(C)c2=O)c(F)cc1Cl ?
// result active

// query Outcome logged for CCCCOC(=O)[C@@H](C)Oc1ccc(Oc2ccc(C(F)(F)F)cn2)cc1 in this assay:
// result inactive

// query What is the recorded call for this compound in the test? CSC(=O)c1cccc2nnsc12
// result inactive

// query Give the logged outcome of this assay for the following compound: c1ccc2[nH]c(-c3cscn3)nc2c1
// result active

// query Answer briefly: the call reported for CN(C)C(=O)Nc1ccc(Cl)c(Cl)c1 in this assay.
// result active

// query What call does the record list for COC(=O)c1ccccc1C(=O)O ?
// result inactive

// query Check the results log: what was the call for CCOC(=O)NCCOc1ccc(Oc2ccccc2)cc1 ?
// result active

// query Write down the call the test reported for this compound. Item: C#CCOC(=O)[C@@H](C)Oc1ccc(Oc2ncc(Cl)cc2F)cc1
// result active

// query Per the records of this test, what outcome belongs to CCSC(=O)N(CC(C)C)CC(C)C ?
// result active

// query Entry COC(=O)c1c(Cl)nn(C)c1S(=O)(=O)NC(=O)Nc1nc(OC)cc(OC)n1 : call = ?
// result inactive

// query Assay result, entry CCN(Cc1c(F)cccc1Cl)c1c([N+](=O)[O-])cc(C(F)(F)F)cc1[N+](=O)[O-] — outcome?
// result active

// query Kindly provide the recorded test outcome for the following compound: COC(=O)c1ccccc1S(=O)(=O)NC(=O)Nc1nc(OC(F)F)cc(OC(F)F)n1
// result inactive

// query Could you check what this test reported for C=CCOC(Cn1ccnc1)c1ccc(Cl)cc1Cl (stereo not given) ?
// result active

// query State the result this test recorded for COc1nc(C)nc(NC(=O)NS(=O)(=O)c2ccccc2OCCCl)n1 .
// result inactive

====

# measurement-target: frog Thyroid hormone Receptor alpha (TRa), thra-a (gene 397942)
# protocol-description: ATG_frTRa_XSP2: Attagene TRANS-FACTORIAL Multi-Species (XSP2) HepG2 Assay for frog Thyroid hormone Receptor alpha (TRa) (AID 2283839)
# Procedure: ATG_XSP2_multi-species_TRANS is a cell-based, multiplexed assay created by modifying the existing Attagene TRANS-FACTORIAL system to include a panel of nuclear receptors from some or all the following species: human (Homo sapiens), mouse (Mus musculus), frog (Xenopus laevis), zebrafish (Danio rerio), chicken (Gallus gallus), and turtle (Chrysemys picta). The ECOTOX-FACTORIAL format uses HepG2, a human liver cell line, with measurements taken at 24 hours after chemical dosing in a 24-well plate. […]
Results filed as inconclusive are left out. Activity calls are given as the source filed them. The calls were made as follows: active = hit-call score of the fitted dose curve at least 0.9, where 1 is the maximum; inconclusive = response in the unintended direction; inactive = score below 0.9.
experimental-readout: outcome

Examples with answers:
>  <compound>
CC(C)(c1ccc(O)cc1)c1ccc(O)cc1

>  <measurement-target>
frog Thyroid hormone Receptor alpha (TRa), thra-a (gene 397942)

>  <result>
inactive

$$$$
>  <compound>
CCN(Cc1c(F)cccc1Cl)c1c([N+](=O)[O-])cc(C(F)(F)F)cc1[N+](=O)[O-]

>  <measurement-target>
frog Thyroid hormone Receptor alpha (TRa), thra-a (gene 397942)

>  <result>
inactive

$$$$
>  <compound>
O=C(c1ccc(O)cc1O)c1ccc(O)cc1O

>  <measurement-target>
frog Thyroid hormone Receptor alpha (TRa), thra-a (gene 397942)

>  <result>
inactive

$$$$
>  <compound>
CCCCC(CC)COC(=O)c1ccccc1C(=O)O (configuration not stated)

>  <measurement-target>
frog Thyroid hormone Receptor alpha (TRa), thra-a (gene 397942)

>  <result>
inactive

$$$$
>  <compound>
CC(C)CCCCCCc1ccc(O)cc1

>  <measurement-target>
frog Thyroid hormone Receptor alpha (TRa), thra-a (gene 397942)

>  <result>
inactive

$$$$
>  <compound>
Oc1ccc(C(c2ccc(O)cc2)C(Cl)(Cl)Cl)cc1

>  <measurement-target>
frog Thyroid hormone Receptor alpha (TRa), thra-a (gene 397942)

>  <result>
inactive

$$$$

Let's switch to this compound now.
// query Given CC(=O)S[C@@H]1CC2=CC(=O)CC[C@]2(C)[C@H]2CC[C@@]3(C)[C@@H](CC[C@@]34CCC(=O)O4)[C@H]12 , state its recorded outcome.
// result inactive

====

# protocol-description: CCTE_Shafer_MEA_dev_per_network_spike_spike_number_mean: CCTE's Neural Network Formation Assay for Mean Number of Spikes in a Network Spike, Shafer Lab (AID 2284053)
Active and inactive are the calls of the source. Rule for the calls: active = hit-call score of the fitted dose curve at least 0.9, where 1 is the maximum; inactive = score below 0.9.

>  <chemical-smiles>
COCCO

>  <outcome>
inactive

$$$$
>  <chemical-smiles>
O=C(O)c1ccccc1

>  <outcome>
inactive

$$$$
>  <chemical-smiles>
CCCCOCCOCCOCc1cc2c(cc1CCC)OCO2

>  <outcome>
inactive

$$$$

====

# measurement-target: human Protein Tyrosine Phosphatase Receptor Type M (PTPRM), PTPRM (gene 5797) (UniProt P28827)
# Sequence (P28827 whole entry, looked up): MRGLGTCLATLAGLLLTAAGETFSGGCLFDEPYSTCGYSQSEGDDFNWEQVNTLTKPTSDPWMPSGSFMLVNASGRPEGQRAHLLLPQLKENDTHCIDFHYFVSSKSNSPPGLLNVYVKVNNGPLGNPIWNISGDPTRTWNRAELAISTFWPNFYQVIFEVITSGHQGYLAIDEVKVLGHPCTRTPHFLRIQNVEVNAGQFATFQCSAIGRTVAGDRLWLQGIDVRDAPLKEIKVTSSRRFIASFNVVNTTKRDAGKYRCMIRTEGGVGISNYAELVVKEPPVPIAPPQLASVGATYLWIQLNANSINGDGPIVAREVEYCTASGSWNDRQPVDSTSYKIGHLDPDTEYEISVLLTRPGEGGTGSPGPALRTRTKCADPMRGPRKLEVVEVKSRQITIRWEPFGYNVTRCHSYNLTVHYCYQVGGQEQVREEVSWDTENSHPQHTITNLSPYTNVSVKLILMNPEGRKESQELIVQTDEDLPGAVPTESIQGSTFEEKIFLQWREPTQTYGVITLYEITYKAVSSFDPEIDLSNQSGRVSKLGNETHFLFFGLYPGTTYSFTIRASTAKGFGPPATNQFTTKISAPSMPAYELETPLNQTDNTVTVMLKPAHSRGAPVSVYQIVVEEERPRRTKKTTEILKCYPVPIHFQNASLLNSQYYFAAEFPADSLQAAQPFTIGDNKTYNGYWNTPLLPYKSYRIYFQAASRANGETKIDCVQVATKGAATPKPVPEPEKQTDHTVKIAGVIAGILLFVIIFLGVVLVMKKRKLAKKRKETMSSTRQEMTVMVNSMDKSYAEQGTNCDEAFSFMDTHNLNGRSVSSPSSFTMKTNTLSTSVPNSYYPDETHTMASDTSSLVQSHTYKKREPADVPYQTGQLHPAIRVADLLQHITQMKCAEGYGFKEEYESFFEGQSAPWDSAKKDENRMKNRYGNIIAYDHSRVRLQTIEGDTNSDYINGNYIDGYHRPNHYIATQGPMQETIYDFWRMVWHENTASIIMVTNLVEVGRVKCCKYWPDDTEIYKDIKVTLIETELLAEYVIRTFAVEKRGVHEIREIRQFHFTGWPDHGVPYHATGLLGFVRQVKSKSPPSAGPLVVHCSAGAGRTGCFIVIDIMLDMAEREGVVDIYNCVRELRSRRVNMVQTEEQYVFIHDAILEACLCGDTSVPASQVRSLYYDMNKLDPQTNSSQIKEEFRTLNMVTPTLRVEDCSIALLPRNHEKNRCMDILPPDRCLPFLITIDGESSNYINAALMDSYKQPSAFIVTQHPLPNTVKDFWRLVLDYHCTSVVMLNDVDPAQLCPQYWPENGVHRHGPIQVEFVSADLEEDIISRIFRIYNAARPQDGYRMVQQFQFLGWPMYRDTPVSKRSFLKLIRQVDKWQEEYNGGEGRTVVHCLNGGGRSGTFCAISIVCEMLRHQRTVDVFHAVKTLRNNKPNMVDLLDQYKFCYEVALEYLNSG
# protocol-description: NVS_ENZ_hPTPRM: NovaScreen (NVS) Enzymatic Assay for human Protein Tyrosine Phosphatase Receptor Type M (PTPRM) (AID 2283215)
Inconclusive results are not listed. Active and inactive are the calls of the source. Rule for the calls: active = hit-call score of the fitted dose curve at least 0.9, where 1 is the maximum; inconclusive = response in the unintended direction; inactive = score below 0.9.
Give one outcome, nothing more. List: true (active), false (inactive)

// query Look up the recorded call for CCCN(CCC)c1c([N+](=O)[O-])cc(C(F)(F)F)c(N)c1[N+](=O)[O-] in this test.
// result false

// query What call does the record list for COc1nc(C)nc(NC(=O)NS(=O)(=O)c2ccccc2OCCCl)n1 ?
// result false

// query Answer briefly: the call reported for O=C(O)C1(C(=O)Nc2ccc(Cl)cc2Cl)CC1 in this assay.
// result true

// query Hi, do you know how Oc1ccc(C(c2ccc(O)cc2)C(Cl)(Cl)Cl)cc1 came out in this test?
// result true

====

# protocol-description: IUF_NPC1_viability_72hr: Viability Assessment at 72 hours in the Leibniz Research Institute for Environmental Medicine (IUF) Neural Progenitor Cell Proliferation Assay (NPC1) (AID 2284209)
The source made the active and inactive calls. How the source made its calls: active means hit-call score of the fitted dose curve at least 0.9, where 1 is the maximum; inactive means score below 0.9.
experimental-readout: outcome

As a guide, the following entries are already answered.
>  <chemical-smiles>
S=C([S-])NCCNC(=S)[S-].[Mn+2]

>  <experimental-readout>
outcome

>  <result>
inactive

$$$$
>  <chemical-smiles>
CCN(CC)C(=O)c1cccc(C)c1

>  <experimental-readout>
outcome

>  <result>
inactive

$$$$
>  <chemical-smiles>
CSC(=O)c1cccc2nnsc12

>  <experimental-readout>
outcome

>  <result>
inactive

$$$$
>  <chemical-smiles>
CC(C)(c1ccc(O)cc1)c1ccc(O)cc1

>  <experimental-readout>
outcome

>  <result>
inactive

$$$$
>  <chemical-smiles>
O=C(O)c1ccccc1

>  <experimental-readout>
outcome

>  <result>
inactive

$$$$

Moving on to the next molecule.
// query Returns the measured outcome for the input molecule. Input: Cc1nn(C)c(Oc2ccccc2)c1C=NOCc1ccc(C(=O)OC(C)(C)C)cc1
// result inactive

====

# Read-out: Early growth response protein 1 (EGR1) transcription factor, EGR1 (gene 1958)
# protocol-description: LTEA_HepaRG_EGR1: Life Technologies and Expression Analysis (LTEA) Assay for Early growth response protein 1 (EGR1) transcription factor using HepaRG (AID 2283490)
# cond: mRNA level, 48 h; actives raise or lower the signal
# Protocol: LTEA_HepaRG is a cell based, multiplexed-readout assay that uses HepaRG, a human liver cell line, with measurements taken at 48 hours after chemical dosing on a 96-well plate.LTEA_HepaRG_EGR1 is one of 102 assay component(s) measured in the LTEA HepaRG cell culture assay. It is a marker of Cell proliferation, survival, death.Data from the assay component LTEA_HepaRG_EGR1 was analyzed into 1 endpoint. […]
The source made the active and inactive calls. How the source made its calls: active means hit-call score of the fitted dose curve at least 0.9, where 1 is the maximum; inactive means score below 0.9.
experimental-readout: AC50

>  <molecule>
CCOC(=O)NCCOc1ccc(Oc2ccccc2)cc1

>  <AC50>
inactive

$$$$
>  <molecule>
CCCCOC(=O)C(C)Oc1ccc(Oc2ccc(C(F)(F)F)cn2)cc1 (stereo not given)

>  <AC50>
inactive

$$$$
>  <molecule>
O=C(O)c1ccccc1

>  <AC50>
inactive

$$$$
>  <molecule>
CC(=O)[C@H]1CC[C@H]2[C@@H]3CCC4=CC(=O)CC[C@]4(C)[C@H]3CC[C@]12C

>  <AC50>
50 µM (active)

$$$$
>  <molecule>
Cc1nn(C)c(Oc2ccccc2)c1C=NOCc1ccc(C(=O)OC(C)(C)C)cc1

>  <AC50>
1.22 µM (active)

$$$$

// query I am curious: what AC50 value has been reported for OB(O)O ?
// result inactive

// query # lookup: AC50 of C#CCOC(=O)[C@@H](C)Oc1ccc(Oc2ncc(Cl)cc2F)cc1
// result inactive

// query # lookup: AC50 of N[C@@H](Cc1cc(I)c(Oc2ccc(O)c(I)c2)c(I)c1)C(=O)O
// result inactive

// query Reported AC50, molecule CCCN(CCC)c1c([N+](=O)[O-])cc(C(F)(F)F)c(N)c1[N+](=O)[O-] : ____
// result inactive

// query State the recorded AC50 for this entry: c1ccc(Nc2ccccc2)cc1
// result inactive
